Source listed as patent US12000819B2.

- ASSAY: Concentration of gas dissolved in cell culture liquid or pure water after bubbling, measured by gas chromatography
- Assay type: physicochemical
- EXPERIMENTAL PARAMETERS: Table 2; same measurements repeated at a later date; cell culture medium, 23° C.
EXPERIMENTAL READOUT: Gas concentration, Cell culture liquid (ppm)

compound="FC(F)Cl [CHF2Cl]" experimental_readout="Gas concentration, Cell culture liquid" endpoint_result=1820
compound="C=C(F)C(F)(F)F [CF3—CF═CH2]" experimental_readout="Gas concentration, Cell culture liquid" endpoint_result=288
compound="FCC(F)(F)F [CH2F—CF3]" experimental_readout="Gas concentration, Cell culture liquid" endpoint_result=599
compound="FCF [CH2F2]" experimental_readout="Gas concentration, Cell culture liquid" endpoint_result=2701

* * *

- ASSAY: Concentration of gas dissolved in cell culture liquid or pure water after bubbling, measured by gas chromatography
- Format: physicochemical
- EXPERIMENTAL PARAMETERS: Table 1; gas bubbled at 20 mL/min for 1 minute in 5 mL purified water, liquid temperature 23° C.; average of three measurements
EXPERIMENTAL READOUT: Gas concentration, Pure water (ppm)

compound="C=C(F)C(F)(F)F [CF3—CF═CH2]" endpoint_result=331
compound="FC(F)Cl [CHF2Cl]" endpoint_result=2399
compound="FCC(F)(F)F [CH2F—CF3]" endpoint_result=656
compound="FCF [CH2F2]" endpoint_result=4140

* * *

- ASSAY: Concentration of gas dissolved in cell culture liquid or pure water after bubbling, measured by gas chromatography
- Type: physicochemical
- EXPERIMENTAL PARAMETERS: Table 2; same measurements repeated at a later date; purified water, 23° C.
EXPERIMENTAL READOUT: Gas concentration, Pure water (ppm)

compound="FC(F)Cl [CHF2Cl]" experimental_readout="Gas concentration, Pure water" endpoint_result=2421
compound="C=C(F)C(F)(F)F [CF3—CF═CH2]" experimental_readout="Gas concentration, Pure water" endpoint_result=360
compound="FCF [CH2F2]" experimental_readout="Gas concentration, Pure water" endpoint_result=3673
compound="FCC(F)(F)F [CH2F—CF3]" experimental_readout="Gas concentration, Pure water" endpoint_result=755
